Values were extracted from patent US20260209348A1.

- TARGET UNDER TEST: T1, recombinant mouse ROR2 (extracellular portion) (mouse, UniProt Q9Z138 34-403)
- T1 construct: also called mROR2
- T1 sequence (Q9Z138 other isoform, or with tags, fused parts or gaps limits assumed): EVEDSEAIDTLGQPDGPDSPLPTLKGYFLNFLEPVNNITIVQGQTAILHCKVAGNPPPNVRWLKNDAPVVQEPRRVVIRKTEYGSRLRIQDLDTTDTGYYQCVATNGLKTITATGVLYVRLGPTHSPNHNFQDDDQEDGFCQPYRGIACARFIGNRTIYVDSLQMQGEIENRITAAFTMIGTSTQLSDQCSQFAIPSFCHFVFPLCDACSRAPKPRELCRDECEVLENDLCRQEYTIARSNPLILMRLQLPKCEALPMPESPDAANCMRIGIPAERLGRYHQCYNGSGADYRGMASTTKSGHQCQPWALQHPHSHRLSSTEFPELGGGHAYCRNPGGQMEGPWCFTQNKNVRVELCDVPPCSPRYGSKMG
- ASSAY NAME: dot blot on nylon membrane, anti-human IgG-HRP
ATTRIBUTE MEASURED: binding result

h6E6-055 (antibody, human IgG1, V domains shown, human IgG1; also called clone 55) VH: EVQLVESGGGLVKPGGSLRLSCAASGFTFSQYGHSWVRQAPGKGLEWVSTISSGGGYTHYAESVKGRFTISRDNAKNSLYLQMNSLRAEDTAVYYCARHPRDFSYAQDYWGQGTTVTVSS VL: EIVMTQSPATLSVSPGERATLSCKASQDVGHYLAWYQQKPGQAPRLLIYWASTRATGIPARFSGSGSGTEFTLTISSLQSEDFAVYYCQQYNIYPWTFGQGTKVEIK; no binding
h6E6-056 (antibody, human IgG1, V domains shown, human IgG1; also called clone 56) VH: EVQLVESGGGLVKPGGSLRLSCAASGFTFSKYGTSWVRQAPGKGLEWVSTISSGGGYTHYAPSVKGRFTISRDNAKNSLYLQMNSLRAEDTAVYYCARHPRDFSYAQDYWGQGTTVTVSS VL: EIVMTQSPATLSVSPGERATLSCRASQDVGHYVAWYQQKPGQAPRLLIYWASTRATGIPARFSGSGSGTEFTLTISSLQSEDFAVYYCQQYNIYPWTFGQGTKVEIK; no binding
h6E6-077 (antibody, human IgG1, V domains shown, human IgG1; also called clone 77) VH: EVQLVESGGGLVKPGGSLRLSCAASGFTFSHYGTSWVRQAPGKGLEWVSTISSGGGYTHYAPSVKGRFTISRDNAKNSLYLQMNSLRAEDTAVYYCARHPRDFSYAIDYWGQGTTVTVSS VL: EIVMTQSPATLSVSPGERATLSCKASQDVGHYVAWYQQKPGQAPRLLIYWASTRATGIPARFSGSGSGTEFTLTISSLQSEDFAVYYCQQYNIYPWTFGQGTKVEIK; no binding
